Source of measurements: paper PMC8294059

Entries annotated with measured log10 of IC50
- target-or-test-system: HLA-A*0301 (Homo sapiens, UniProt P04439)
- test-summary: biochemical
- Assay type: binding
- test-conditions: allele A*0301; fluorescence polarization competition; read-out: IC50 (nM), in vitro HLA binding affinity
Where a SMILES comes first, the peptide text is derived from it.
readout-name: log10 of IC50 (log10 of the value in nM)

# compound, log10 of IC50
measured = [
    ("CC[C@H](C)[C@H](NC(=O)[C@H](Cc1ccc(O)cc1)NC(=O)[C@@H](NC(=O)[C@H](Cc1ccc(O)cc1)NC(=O)[C@H](CO)NC(=O)CN)[C@@H](C)CC)C(=O)N[C@@H](CC(=O)O)C(=O)N[C@H](C(=O)N[C@H](C(=O)N[C@@H](CCCCN)C(=O)O)[C@@H](C)CC)[C@@H](C)O [RH5_402] (H-GSYIYIDTIK-OH)", 4.85),
    ("CC(C)C[C@H](NC(=O)[C@H](CC(N)=O)NC(=O)[C@@H](NC(=O)[C@H](CC(C)C)NC(=O)[C@H](CC(C)C)NC(=O)[C@@H](N)CC(C)C)[C@@H](C)O)C(=O)N[C@@H](CC(N)=O)C(=O)N[C@@H](CCCCN)C(=O)N[C@@H](CCCCN)C(=O)O [RH5_392] (H-LLLTNLNKK-OH)", 4.15),
    ("CC[C@H](C)[C@H](NC(=O)[C@@H](N)Cc1c[nH]cn1)C(=O)N[C@@H](Cc1ccc(O)cc1)C(=O)N[C@H](C(=O)N[C@@H](CCC(N)=O)C(=O)N[C@@H](CCCCN)C(=O)N[C@@H](CCCCN)C(=O)N[C@H](C(=O)N[C@@H](CCCCN)C(=O)O)C(C)C)C(C)C [CYRPA_076] (H-HIYVQKKVK-OH)", 2.95),
    ("CC[C@H](C)[C@H](NC(=O)[C@@H](N)CO)C(=O)N[C@@H](Cc1ccc(O)cc1)C(=O)N[C@@H](Cc1c[nH]cn1)C(=O)N[C@@H](CCCCN)C(=O)N[C@@H](CO)C(=O)N[C@@H](CO)C(=O)N[C@H](C(=O)N[C@@H](Cc1ccc(O)cc1)C(=O)O)[C@@H](C)O [RH5_192] (H-SIYHKSSTY-OH)", 3.77),
    ("CC[C@H](C)[C@H](NC(=O)[C@H](CCCCN)NC(=O)[C@@H](NC(=O)[C@@H](N)Cc1c[nH]cn1)[C@@H](C)O)C(=O)N[C@H](C(=O)N[C@@H](CC(N)=O)C(=O)N[C@@H](CC(=O)O)C(=O)N[C@@H](CCCCN)C(=O)N[C@H](C(=O)N[C@@H](CCCCN)C(=O)O)[C@@H](C)O)[C@@H](C)CC [RH5_427] (H-HTKIINDKTK-OH)", 4.86),
    ("CC(C)C[C@H](NC(=O)[C@H](Cc1ccc(O)cc1)NC(=O)[C@H](CCC(N)=O)NC(=O)[C@H](CC(N)=O)NC(=O)CNC(=O)[C@@H](NC(=O)[C@H](C)NC(=O)[C@@H](NC(=O)[C@@H]1CCCN1)C(C)C)[C@@H](C)O)C(=O)N[C@@H](CCCCN)C(=O)O [AMA1_168] (H-PVATGNQYLK-OH)", 5.52),
    ("CC(C)[C@H](NC(=O)[C@@H](N)CS)C(=O)N[C@@H](CS)C(=O)N[C@H](C(=O)N[C@@H](Cc1ccc(O)cc1)C(=O)N[C@@H](CC(N)=O)C(=O)N[C@@H](Cc1ccc(O)cc1)C(=O)N[C@@H](Cc1ccc(O)cc1)C(=O)N[C@@H](CCCCN)C(=O)N[C@@H](CCCCN)C(=O)O)[C@@H](C)O [RIPR_0924] (H-CVCTYNYYKK-OH)", 4.16),
    ("CC[C@H](C)[C@H](NC(=O)[C@H](CO)NC(=O)[C@H](CC(N)=O)NC(=O)[C@H](Cc1ccc(O)cc1)NC(=O)[C@H](CO)NC(=O)[C@H](CC(C)C)NC(=O)[C@@H](N)Cc1c[nH]cn1)C(=O)N[C@@H](Cc1ccc(O)cc1)C(=O)N[C@@H](Cc1c[nH]cn1)C(=O)N[C@@H](CCCCN)C(=O)O [RH5_187] (H-HLSYNSIYHK-OH)", 4.65),
    ("C[C@H](N)C(=O)N[C@H](C(=O)N[C@@H](CS)C(=O)N[C@@H](CCCCN)C(=O)N[C@@H](Cc1ccc(O)cc1)C(=O)NCC(=O)N[C@@H](Cc1ccccc1)C(=O)N[C@@H](CC(N)=O)C(=O)N[C@@H](CCCCN)C(=O)O)[C@@H](C)O [RIPR_0266] (H-ATCKYGFNK-OH)", 3.68),
    ("CC[C@H](C)[C@H](NC(=O)[C@H](CC(=O)O)NC(=O)[C@@H]1CCCN1C(=O)[C@H](CC(C)C)NC(=O)[C@@H](NC(=O)[C@@H](N)CO)[C@@H](C)CC)C(=O)N[C@@H](CC(N)=O)C(=O)N[C@@H](CCCCN)C(=O)N[C@@H](CO)C(=O)N[C@@H](CCCCN)C(=O)O [RIPR_0500] (H-SILPDINKSK-OH)", 4.10),
    ("CC(C)C[C@H](NC(=O)[C@H](CC(C)C)NC(=O)[C@H](CCC(=O)O)NC(=O)[C@H](CC(=O)O)NC(=O)[C@H](CCCCN)NC(=O)[C@H](CCC(N)=O)NC(=O)[C@H](Cc1ccccc1)NC(=O)[C@@H](NC(=O)[C@@H](N)CCCNC(=N)N)[C@@H](C)O)C(=O)N[C@@H](CCCCN)C(=O)O [RH5_448] (H-RTFQKDELLK-OH)", 4.38),
    ("CC[C@H](C)[C@H](NC(=O)[C@H](CC(=O)O)NC(=O)[C@H](CC(N)=O)NC(=O)[C@H](CS)NC(=O)[C@H](CCCCN)NC(=O)[C@H](CO)NC(=O)[C@H](CCCCN)NC(=O)[C@@H](NC(=O)[C@@H](N)CCCCN)C(C)C)C(=O)N[C@@H](CCCCN)C(=O)O [RH5_219] (H-KVKSKCNDIK-OH)", 4.59),
    ("CC[C@H](C)[C@H](NC(=O)[C@H](CO)NC(=O)[C@@H](N)CC(N)=O)C(=O)N[C@@H](Cc1ccc(O)cc1)C(=O)N[C@@H](Cc1c[nH]cn1)C(=O)N[C@@H](CCCCN)C(=O)N[C@@H](CO)C(=O)N[C@@H](CO)C(=O)N[C@H](C(=O)N[C@@H](Cc1ccc(O)cc1)C(=O)O)[C@@H](C)O [RH5_191] (H-NSIYHKSSTY-OH)", 5.00),
]
